Test System: α1-adrenergic receptor
Assay Info: α1-adrenergic receptor binding (3H-prazosin displacement, rat cortex membranes)
Test Context: 3H-prazosin 0.05 nM, 25° C., 20 min
Assay Metric: pKi
To interpret pKi, take it as minus log10 of a concentration measured in moles per litre.

### Prompt Kindly indicate its recorded pKi. Item: CN1CC2CCc3[nH]c4ccccc4c3C2C1 (single isomer, unassigned)
### Response 7.21

----------
Assay Info: mouse acetylcholine bromide-induced abdominal constriction assay
Format: in vivo, mice (Male, Cr1:CD-1)
Test Context: Mus musculus, sc, 0.5 h; 30 mg/kg s.c.; acetylcholine bromide 5.5 mg/kg i.p. 30 min later; read-out: % inhibition @ 30 mg/kg
Attribute: responders at 30 mg/kg
Return type: number; implicit unit %.

c1ccc2c3c([nH]c2c1)CC[C@H]1CNC[C@@H]31 (relative stereo) [Compound 64]
80

### Prompt Return value of responders at 30 mg/kg for input CN1C[C@@H]2CCc3[nH]c4ccc(Br)cc4c3[C@@H]2C1 (relative stereo) [Compound 36] , no commentary.
### Response 100

### Prompt Kindly indicate its recorded responders at 30 mg/kg. Item: C[C@@H]1[C@@H]2c3c([nH]c4ccccc34)CC[C@@H]2CN1C (relative stereo) [Compound 69]
### Response 100

### Prompt Could you please provide reported responders at 30 mg/kg for CN1C[C@@H]2CCc3[nH]c4ccc(F)cc4c3[C@@H]2C1 (relative stereo) [Compound 31] ? Thanks!
### Response 93

### Prompt Give the value of responders at 30 mg/kg reported for the following: CN1CC2CCc3[nH]c4ccccc4c3C2C1 (single isomer, unassigned) [Compound 57]
### Response 100

### Prompt Respond only with responders at 30 mg/kg recorded for CN1C[C@@H]2CCc3[nH]c4c(Cl)cccc4c3[C@@H]2C1 (relative stereo) [Compound 35]
### Response 93

### Prompt Provide one value: measured responders at 30 mg/kg of CN1C[C@@H]2CCc3[nH]c4cc(Cl)ccc4c3[C@@H]2C1 (relative stereo) [Compound 37]
### Response 100

### Prompt Look up and state reported responders at 30 mg/kg for CN1C[C@@H]2CCc3[nH]c4c(Br)cccc4c3[C@@H]2C1 (relative stereo) [Compound 45]
### Response 73

### Prompt Please indicate responders at 30 mg/kg recorded for C[C@H]1C[C@H]2CN(C)C[C@H]2c2c1[nH]c1ccccc21 (relative stereo) [Compound 89]
### Response 100

----------
Assay Info: mouse acetylcholine bromide-induced abdominal constriction assay
Type: in vivo, mice (Male, Cr1:CD-1)
Test Context: Mus musculus, 0.5 h; 30 mg/kg po; acetylcholine bromide 5.5 mg/kg i.p. 30 min later; read-out: % inhibition @ 30 mg/kg (po)
Assay Metric: responders at 30 mg/kg (%)
The reply should be a number in %, with the unit left off.

Recorded responders at 30 mg/kg, per entry:
CN1C[C@@H]2CCc3[nH]c4cccc(F)c4c3[C@@H]2C1 (relative stereo)
100
CN1C[C@@H]2CCc3[nH]c4c(F)cccc4c3[C@@H]2C1 (relative stereo)
93
CN1C[C@@H]2CCc3[nH]c4cccc(Cl)c4c3[C@@H]2C1 (relative stereo)
87
C[C@@H]1C[C@H]2CN(C)C[C@H]2c2c1[nH]c1ccccc21 (relative stereo)
93

### Prompt Tell me its responders at 30 mg/kg given CN1C[C@@H]2CCc3[nH]c4ccccc4c3[C@H]2C1 (relative stereo) as the entry.
### Response 100

### Prompt Quick one: give measured responders at 30 mg/kg for CN1C[C@@H]2CCc3[nH]c4cc(F)ccc4c3[C@@H]2C1 (relative stereo)
### Response 100

### Prompt Check the records and state responders at 30 mg/kg for Cc1cccc2c3c([nH]c12)CC[C@H]1CN(C)C[C@@H]31 (relative stereo)
### Response 87

### Prompt Please give the documented responders at 30 mg/kg of CN1CC2CCc3[nH]c4ccccc4c3C2C1 (single isomer, unassigned)
### Response 100
